Origin of the recorded values: PubChem BioAssay AID1159580

Exercise: for every item that follows, state its recorded normalized growth.
protocol: chemical genetic growth profiling, strain panel (AID 1159580);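 further: tested at 20 µM; growth read once vehicle control cultures reached saturation at 30 °C; 1 = growth at the plate median or of vehicle wells; lower values mean less growth of the strain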
measurementConditions: S. cerevisiae deletion strains, growth OD, locus YMR223W, strain ubp8, hits give low values
In all, about 5,500 compounds went through this assay and about 2,000 (36%) were called active. Inconclusive results (about 18%) are left out. This is one part of the list.
Answers are plain numbers.

- compound: "COP(=S)(OC)SCn1nnc2ccccc2c1=O"
  normalized growth: 0.962
- compound: "C[C@]12CCC3c4ccc(O)cc4CCC3C1CC[C@@H]2OC(=O)CCC1CCCC1 (some centres not stated)"
  normalized growth: 1.04
- compound: "CC(C)=CCOc1c2occc2cc2ccc(=O)oc12"
  normalized growth: 0.736
- compound: "CC(C(=O)O)c1ccc(N2Cc3ccccc3C2=O)cc1 (configuration not stated)"
  normalized growth: 0.98
- compound: "CCN(CC)CCNC(=O)COc1ccc(OC)cc1"
  normalized growth: 1.04
- compound: "CCCCC(=O)O[C@H]1CCC2C3CCc4cc(O)ccc4C3CC[C@@]21C (some centres not stated)"
  normalized growth: 1.04
- compound: "C=C(C)c1cc2cc(C(C)=O)c(O)cc2o1"
  normalized growth: 0.967
- compound: "O=C1OC(=O)C2C3CCC(O3)C12 (configuration not stated)"
  normalized growth: 0.989
- compound: "CC(C)=CCOc1cc2oc(=O)ccc2cc1O"
  normalized growth: 0.894
- compound: "CN1CCN(C(c2ccccc2)c2ccccc2)CC1"
  normalized growth: 0.991

List the reported normalized growth of each compound below.
1. Fc1ccc(C(c2ccc(F)cc2)N2CCN(C/C=C/c3ccccc3)CC2)cc1
2. CNC(=O)CSP(=S)(OC)OC

Result ::
0.988
1.02
